molecular target: Luciferin 4-monooxygenase (Photinus pyralis, UniProt P08659); test: Inhibition of Photinus pyralis luciferase by PK-Light assay
Sequence (P08659 whole entry): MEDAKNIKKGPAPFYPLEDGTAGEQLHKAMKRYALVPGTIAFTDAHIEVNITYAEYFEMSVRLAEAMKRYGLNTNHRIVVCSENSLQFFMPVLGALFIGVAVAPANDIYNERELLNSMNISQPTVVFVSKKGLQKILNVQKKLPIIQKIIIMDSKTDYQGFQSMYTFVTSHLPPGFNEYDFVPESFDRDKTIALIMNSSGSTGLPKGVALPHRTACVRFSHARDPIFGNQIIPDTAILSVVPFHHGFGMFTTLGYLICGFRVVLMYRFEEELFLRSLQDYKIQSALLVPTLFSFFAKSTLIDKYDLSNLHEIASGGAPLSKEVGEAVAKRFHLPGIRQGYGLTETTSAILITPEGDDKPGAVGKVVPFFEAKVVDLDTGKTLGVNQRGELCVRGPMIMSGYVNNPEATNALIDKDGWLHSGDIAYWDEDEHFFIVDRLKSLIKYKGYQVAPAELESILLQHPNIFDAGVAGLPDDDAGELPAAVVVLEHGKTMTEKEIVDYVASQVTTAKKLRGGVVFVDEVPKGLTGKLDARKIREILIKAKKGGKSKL
measured_property: IC50

These solved cases illustrate the format of a correct answer.
CCOC(=O)N1CCN(C(=O)c2cc(-c3ccc(OCC)cc3)nc3ccccc23)CC1 | 1.4 µM
CCOc1ccc(-c2cc(C(=O)N3CCC4(CC3)OCCO4)c3ccccc3n2)cc1 | 1.4 µM
Cc1ccc2nc(NC(=O)c3cccs3)sc2c1 | 1.4 µM
Cc1ccc(C(=O)Cn2c3c(sc2=N)CCCC3)cc1 | 1.1 µM
O=c1cc(-c2ccccc2O)oc2ccc3ccccc3c12 | 0.7 µM

// IC50 value for CCOc1ccc2nc(NC(=O)Nc3cccs3)sc2c1 : 1.45 µM

// IC50 value for O=C(/C=C\Nc1cccc(F)c1)c1ccc2c(c1)OCO2 : 1.2 µM

// IC50 value for COc1ccc(C(=O)NC(=O)Nc2cc(C)ccn2)cc1 : 0.98 µM

Source: ChEMBL document CHEMBL1144767
